Reference source for all entries: paper PMC10397247

# target.under.test: T1, P8
# T1 chain: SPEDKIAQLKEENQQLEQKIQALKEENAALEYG
# assay.info: two-hybrid library CC1;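 note: natural log of median RNA to DNA barcode read ratio; higher means stronger binding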
# test.context: mean of both orientations
observation.type: interaction score

| binder | observation.type | reported |
| --- | --- | --- |
| ENARLEEKIRQLKQKNSQLKEEIQQLEYGC [P5SC2] | interaction score | -1.1 |
| KNAQLKEENAALEEKIQQLKEKIQALKYG [P10] | interaction score | -2.83 |
| KISQLKQKIQQLKQENQQLEEENSQLEYG [P4mS] | interaction score | -2.9 |
| KNSQLKEEIQQLEEENQQLEEKISQLKYG [P6mS] | interaction score | -2.63 |
| SPEDEIQALEEKNAQLKQEIAALEEKNQALKYG [P7] | interaction score | 0.391 |
| SPEDKIAQLKQKIQALKQENQQLEEENAALEYG [P4] | interaction score | -2.99 |
| EIQSLEEKNSQLKQEISQLEEKNQQLKYG [P7mS] | interaction score | 0.285 |
| SPEDEIQQLEEEIAQLEQKNAALKEKNQALKYG [P3] | interaction score | -2.6 |
| KNAQLKEKIAALKEKIQQLKEENQALEYG [P12] | interaction score | -2.9 |
| ENSQLEEKISQLKQKNSQLKEEIQQLEYG [P5mS] | interaction score | -2.02 |
